In this section, each of the compounds is paired with its reported IC50.
molecular target: RORγt (Homo sapiens); construct: The resulting GAL4-RORγt-LBD fusion construct was placed under the control of a constitutive cytomegalovirus (CMV) promoter; expressed in transfected cells; host or cells: HEK293; experiment: RORγ Reporter Assay (GAL4-UAS luciferase reporter in HEK293 cells); assay type: cell-based; settings: benzoxazines, Table 9; HEK cells

INSERT INTO assay_data (compound, assay_system, endpoint, val) VALUES
  ('CC(C)OCC1CN(S(=O)(=O)c2ccc(F)cc2)c2cc(NC(=O)c3c(Cl)cccc3Cl)ccc2O1 (stereo not shown)', 'RORγt (Homo sapiens)', 'IC50', '< 15 µM');

Please look at the following compound next.
### Prompt Provide IC50 value for the following compound: CC(C)OCC1CN(S(=O)(=O)c2ccc(F)cc2)c2cc(NC(=O)c3c(F)cccc3Cl)ccc2O1 (stereo not shown)
### Response < 15 µM

====

target: RORγt (Homo sapiens); construct: The resulting GAL4-RORγt-LBD fusion construct was placed under the control of a constitutive cytomegalovirus (CMV) promoter; expressed in transfected cells; host or cells: HEK293; assay: RORγ Reporter Assay (GAL4-UAS luciferase reporter in HEK293 cells); type: cell-based; details: Table 7, tetrahydroquinolines; HEK293 cells; read-out: RORγ HEK IC50
ENDPOINT: IC50

INSERT INTO measurements (compound, val) VALUES
  ('Cc1cc2c(cc1NC(=O)c1c(F)cccc1Cl)N(S(=O)(=O)c1ccc(F)cc1)CCC2 [Compound 6]', '< 15 µM');

Please look at the following compound next.
### Prompt Provide IC50 value for the following compound: O=C(Nc1ccc2c(c1)N(S(=O)(=O)c1ccc(Cl)cc1)CCC2)c1c(F)cccc1Cl [Compound 5]
### Response < 15 µM

====

Target: RORγ-LBD (Homo sapiens, UniProt P51449)
Construct: HIS-tagged RORγ-LBD was recombinantly expressed in SF9 cells; made in house; host or cells: SF9 cells (baculovirus); unpurified lysate
Sequence (P51449 269-508 limits assumed): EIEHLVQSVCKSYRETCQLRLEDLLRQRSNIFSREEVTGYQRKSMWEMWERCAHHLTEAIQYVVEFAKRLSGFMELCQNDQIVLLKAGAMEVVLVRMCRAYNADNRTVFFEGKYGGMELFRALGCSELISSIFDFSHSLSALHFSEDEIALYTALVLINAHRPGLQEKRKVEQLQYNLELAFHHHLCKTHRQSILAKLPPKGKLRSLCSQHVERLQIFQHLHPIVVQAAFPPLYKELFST
Experiment: RORγ-Ligand Binding Domain TR-FRET Assay
Assay type: biochemical
Conditions: Table 8, indazoles
ENDPOINT: IC50

Take a look at these entries with their results.
INSERT INTO assay_data (molecule, assay_system, val) VALUES
  ('CC(=O)c1cccc(S(=O)(=O)n2ncc3ccc(NC(=O)c4c(F)cccc4C(F)(F)F)cc32)c1', 'RORγ-LBD (Homo sapiens, UniProt P51449)', '< 15 µM'),
  ('COc1cccc(S(=O)(=O)n2ncc3ccc(NC(=O)Cc4ccc(F)cc4)cc32)c1', 'RORγ-LBD (Homo sapiens, UniProt P51449)', '< 15 µM'),
  ('O=C(Nc1ccc2cnn(S(=O)(=O)c3cccc(Cl)c3)c2c1)c1c(F)cccc1F', 'RORγ-LBD (Homo sapiens, UniProt P51449)', '< 15 µM'),
  ('O=C(Nc1ccc2cnn(S(=O)(=O)c3ccc(F)c(C(F)(F)F)c3)c2c1)c1c(Cl)cccc1C(F)(F)F', 'RORγ-LBD (Homo sapiens, UniProt P51449)', '< 15 µM'),
  ('O=C(Nc1ccc2cnn(S(=O)(=O)c3ccccc3OC(F)(F)F)c2c1)c1c(F)cccc1Cl', 'RORγ-LBD (Homo sapiens, UniProt P51449)', '< 15 µM'),
  ('O=C(Nc1ccc2cnn(S(=O)(=O)C3CCOCC3)c2c1)c1c(F)cccc1Cl', 'RORγ-LBD (Homo sapiens, UniProt P51449)', '< 15 µM'),
  ('Cc1nn(C(F)F)cc1S(=O)(=O)n1ncc2ccc(NC(=O)c3c(F)cccc3F)cc21', 'RORγ-LBD (Homo sapiens, UniProt P51449)', '< 15 µM'),
  ('O=C(Nc1ccc2cnn(S(=O)(=O)c3cccc(OC(F)F)c3)c2c1)c1c(F)cccc1F', 'RORγ-LBD (Homo sapiens, UniProt P51449)', '< 15 µM');

### Prompt Answer briefly: IC50 recorded on RORγ-LBD (Homo sapiens, UniProt P51449) for "O=C(Nc1ccc2cnn(S(=O)(=O)c3ccccc3)c2c1)c1c(F)cccc1Cl"
### Response < 15 µM

### Prompt Answer briefly: IC50 recorded on RORγ-LBD (Homo sapiens, UniProt P51449) for "N#Cc1cccc(S(=O)(=O)n2ncc3ccc(NC(=O)c4c(F)cccc4Cl)cc32)c1"
### Response < 15 µM

### Prompt Answer briefly: IC50 recorded on RORγ-LBD (Homo sapiens, UniProt P51449) for "Cc1ccc(F)cc1S(=O)(=O)n1ncc2ccc(NC(=O)c3c(F)cccc3Cl)cc21"
### Response < 15 µM

### Prompt Answer briefly: IC50 recorded on RORγ-LBD (Homo sapiens, UniProt P51449) for O=C(Nc1ccc2cnn(S(=O)(=O)C3CC3c3ccccc3)c2c1)c1c(F)cccc1Cl (stereo not shown)
### Response < 15 µM

### Prompt Answer briefly: IC50 recorded on RORγ-LBD (Homo sapiens, UniProt P51449) for "O=C(Nc1ccc2cnn(S(=O)(=O)c3cccc(OC(F)F)c3)c2c1)c1c(Cl)cccc1Cl"
### Response < 15 µM
